melting point vs 200 °C: at or above is Condition met, below is Condition not met.

Does melting point meet or surpass 200 °C for O=C(CC1CCCO1)N[C@H]1CC[C@H](CCN2CCN(c3nccc4c3OCC4)CC2)CC1 (mixture of isomers) [Example 29] ? Condition not met

Given the entry CC(C)CC(=O)N[C@H]1CC[C@H](CCN2CCN(c3nccc4c3OCC4)CC2)CC1 [Example 24] , answer whether its melting point meets or surpasses 200 °C. Condition not met

Hello, I need to know if CN(C)S(=O)(=O)N[C@H]1CC[C@H](CCN2CCN(c3nccc4c3OCC4)CC2)CC1 [Example 95] has measured melting point not below 200 °C. Thanks! Condition not met

Exam item: decide whether the reported melting point for O=C(N[C@H]1CC[C@H](CCN2CCN(c3nccc4c3OCC4)CC2)CC1)c1ccc2ncccc2c1 [Example 77] is at least 200 °C. Condition met

Decide: is the reported value of melting point for O=C(N[C@H]1CC[C@H](CCN2CCN(c3nccc4c3OCC4)CC2)CC1)C1(O)CC1 [Example 44] equal to or greater than 200 °C? Condition met

Continuing:
Evaluate CC(C)CCC(=O)N[C@H]1CC[C@H](CCN2CCN(c3nccc4c3OCC4)CC2)CC1 [Example 42] : melting point at minimum 200 °C? Condition not met
